System: Staphylococcus aureus Sa2 (MRSA, cystic fibrosis isolate)
Assay: growth reduction vs untreated control (OD550); higher = stronger antibacterial activity
Settings: 0.1 mM; 24 h
Where a name gives a salt, the structure may show the parent alone.
In this section we review reported growth reduction values for a set of compounds.
I only need the number, in %, no unit after it.

Worked examples follow.
[
  {
    "compound": "C=CC(=O)N1CC[C@@H](Oc2nc(Nc3ccc(N4CCC(N5CCN(C)CC5)CC4)cc3)c(C(N)=O)nc2CC)C1 [Naquotinib (mesylate)]",
    "growth reduction / %": 99.6
  },
  {
    "compound": "Oc1c(Cl)cc(Cl)cc1Sc1cc(Cl)cc(Cl)c1O [Bithionol]",
    "growth reduction / %": 99.2
  },
  {
    "compound": "COC1=C(OC)C(=O)C(CCCCCCCCCC[P+](c2ccccc2)(c2ccccc2)c2ccccc2)=C(C)C1=O [Mitoquinone (mesylate)]",
    "growth reduction / %": 100
  },
  {
    "compound": "CC(C)COc1ccc(CNC(=O)N(Cc2ccc(F)cc2)C2CCN(C)CC2)cc1 [Pimavanserin]",
    "growth reduction / %": 100
  },
  {
    "compound": "CCCCN(CCCC)CCC(O)c1cc2c(Cl)cc(Cl)cc2c2cc(C(F)(F)F)ccc12 (stereo not drawn) [Halofantrine hydrochloride]",
    "growth reduction / %": 100
  }
]

**Q:** Any idea what growth reduction came out for C[C@H](CCC(=O)O)[C@H]1CC[C@H]2[C@@H]3[C@H](O)C[C@@H]4C[C@H](O)CC[C@]4(C)[C@H]3CC[C@]12C [Chenodeoxycholic Acid] on Staphylococcus aureus Sa2 (MRSA, cystic fibrosis isolate)?
**A:** 99

**Q:** And what about the compound CC(C)(C)c1nc(-c2cccc(NS(=O)(=O)c3c(F)cccc3F)c2F)c(-c2ccnc(N)n2)s1 [Dabrafenib (Mesylate)] ?
**A:** 98.3

**Q:** Request: Cc1cc(C)cc([C@@H]2CCCN2Cc2ccc(Oc3ccc(C(N)=O)cc3F)cc2)c1 [Aticaprant]
**A:** 100

**Q:** // repeat for C=Cc1cc(O)cc2nc(-c3ccc(O)c(F)c3)oc12 [Prinaberel] and report
**A:** 100

**Q:** Next record, please: CSc1ccc(OCc2ncc([N+](=O)[O-])n2C)cc1 [Fexinidazole]
**A:** 98.5

**Q:** And for CCOC(=O)N1CCC(=C2c3ccc(Cl)cc3CCc3cccnc32)CC1 [Loratadine] ?
**A:** 100

**Q:** Check C[C@@H](NCCCc1cccc(C(F)(F)F)c1)c1cccc2ccccc12 [Cinacalcet] too.
**A:** 97.4

**Q:** Next compound up: CC(C)c1cc(Oc2c(Br)cc(NC(=O)CC(=O)O)cc2Br)ccc1O [Eprotirome]
**A:** 99.3
